All values here come from patent US20260193376A1.

# TESTED_TARGET: human plasma-derived Factor IXa (human, UniProt P00740 47-191; P00740 227-461)
# Sequence (P00740 47-191, chain 1 of 2): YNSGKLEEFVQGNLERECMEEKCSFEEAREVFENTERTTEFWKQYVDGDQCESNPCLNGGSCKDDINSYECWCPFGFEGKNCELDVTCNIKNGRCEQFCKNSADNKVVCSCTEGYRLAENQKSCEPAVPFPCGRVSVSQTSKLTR
# Sequence (P00740 227-461, chain 2 of 2): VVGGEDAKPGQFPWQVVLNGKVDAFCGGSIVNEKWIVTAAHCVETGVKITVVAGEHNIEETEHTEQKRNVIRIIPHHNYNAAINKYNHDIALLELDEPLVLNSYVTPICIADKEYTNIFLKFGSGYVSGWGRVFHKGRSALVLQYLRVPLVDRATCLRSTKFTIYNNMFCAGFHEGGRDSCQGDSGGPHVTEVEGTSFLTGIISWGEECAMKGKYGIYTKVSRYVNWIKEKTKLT
# TEST: cell-based or functional assay
QUANTITY_KIND: Stimulation Index, FXa generation assay, 800 nM OA antibody (fold)
Dear colleague, please return just the value in fold, with no unit written.

1) one-armed (OA) mAb11-1024 (antibody, V domains shown) VH: EVQLVESGGGLVQPGRSLRLSCAASKFTFHDYAMHWVRQAPGKGLEWVSGISWKGDIGGYVDSVKGRFTISRDNAKNSLYLQMNSLRAEDTALYYCAKSYGSGSFYNAFDSWGQGTLVTVSS VL: DIQMTQSPSTLSASVGDRVTITCRASQSISSWLAWYQQKPGKAPKFLIYKASKLERGTPSRFSGSGSGTEFTLTISSLQPDDFATYYCLEYSSYIRTFGQGTKVEIK
3650

Q) Could you share which Stimulation Index, FXa generation assay, 800 nM OA antibody value was measured for one-armed (OA) mAb11-1033 (antibody, V domains shown) VH: EVQLVESGGGLVQPGRSLRLSCAASKFTFHDYAMHWVRQVPGKGLEWVSGISWKGDIGGYVDSVKGRFTISRDNAKNSLYLQMNSLRAEDTALYYCAKSYGSGSFYNAFDSWGQGTLVTVSS VL: DIQMTQSPSTLSASVGDRVTITCRASQSISSWLAWYQQKPGKAPKFLIYKASKLERGTPSRFSGSGSGTEFTLTISSLQPDDFATYYCLEYSSYIRTFGQGTKVEIK ?
A) 5130

Q) Which Stimulation Index, FXa generation assay, 800 nM OA antibody reading was recorded for the binder one-armed (OA) mAb11-1288 (antibody, V domains shown) VH: EVQLVESGGGLVQPGRSLRLSCAASGFTFHDYAMHWVRQVPGKGLEWVSGISWKGDIGGYVDSVKGRFTISRDNEKNSLYLQMNSLRAEDTALYYCVKSYGSGSFYNAFDSWGQGTLVTVSS VL: DIQMTQSPSTLSASVGDRVTITCRASQSISSWLAWYQQKPGKAPKFLIYKASRLDRGTPQRFSGSGSGTEFSLTIYSLQPDDFATYYCLEYNSYIRTFGQGTKVEIK ?
A) 2530
